Parameter: IC50. Scope: all listed entries.
target: His-tagged KRAS G12D protein (Homo sapiens, UniProt P01116, G12D); test: KRAS G12D TR-FRET assay (binding); conditions: biotinylated KRPep-2d substrate, GDP in assay buffer
Sequence (P01116 1-188 isoform P01116-2 G12D): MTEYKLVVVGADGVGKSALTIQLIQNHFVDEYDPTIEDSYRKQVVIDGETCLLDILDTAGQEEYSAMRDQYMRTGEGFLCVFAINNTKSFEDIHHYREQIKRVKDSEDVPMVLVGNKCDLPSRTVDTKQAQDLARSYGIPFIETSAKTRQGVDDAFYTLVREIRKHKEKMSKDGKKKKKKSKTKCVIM
measured-endpoint: IC50 (nM)

1) CCc1c(F)ccc2cc(O)cc(-c3ncc4c(N5CCCOC(C(=O)NC)C5)nc(OC[C@@]56CCCN5C[C@H](F)C6)nc4c3F)c12 (single isomer, unassigned) [Example 42] :: 2
2) CCc1cccc2cc(O)cc(-c3ncc4c(N5CCCOCC5)nc(OC[C@@]56CCCN5C[C@H](F)C6)nc4c3F)c12 :: 1
3) CCc1c(F)ccc2cc(O)cc(-c3ncc4c(N5C[C@H]6CCC[C@@H](C5)O6)nc(OC[C@@]56CCCN5C[C@H](F)C6)nc4c3F)c12 :: 44
4) CCc1c(F)ccc2cc(O)cc(-c3ncc4c(N5CCCS(=N)(=O)CC5)nc(OC[C@@]56CCCN5C[C@H](F)C6)nc4c3F)c12 (stereo partly shown) :: 21
